Each recorded value in this set is attributed to patent US10676429B2.

assay: Cytotoxicity in HepG2 cells, 4 days, Resazurin assay; conditions: human, HepG2 cells
measure name: CC50 at 4 days

CC1(NS(=O)(=O)c2cccc(C(=O)Nc3ccc(F)c(Br)c3)c2)COC1	> 25 µM
O=C(Nc1ccc(F)cc1)c1cc(S(=O)(=O)N2CCCCC2)ccc1Cl	> 50 µM

Notebook: CC(C)NS(=O)(=O)c1ccc(F)c(C(=O)Nc2cccc(C(F)(F)F)c2)c1F , CC50 at 4 days read as 16.7 µM

Notebook: Cc1cc(NC(=O)c2cccc(S(=O)(=O)N[C@H]3c4ccccc4C[C@H]3O)c2)ccc1F , CC50 at 4 days read as > 25 µM
